Data origin: PubChem BioAssay (EPA / NIEHS)

Experiment: APR_HepG2_MitoMass_24hr: Apredica 24-hour HepG2 Assay for Mitochondrial Mass (AID 2282912)
Settings: high-content imaging, actives raise or lower the signal
The source made the active and inactive calls. Rule for the calls: active = hit-call score of the fitted dose curve at least 0.9, where 1 is the maximum; inactive = score below 0.9.
Possible outcomes: true = active, false = inactive

c1ccc2c(c1)-c1cccc3cccc-2c13	false
c1ccc(NNc2ccccc2)cc1	false
O=Cc1ccco1	false
Nc1ccc(Cc2ccc(N)cc2)cc1	false
C[C@]12C=CC3=C4CCC(=O)C=C4CC[C@H]3[C@@H]1CC[C@@H]2O	false
CCCSC(=O)N(CCC)CCC	false
O=P(OCCCl)(OCCCl)OCCCl	false
CC(C)COC(=O)c1ccccc1C(=O)OCC(C)C	true
CCC(C)c1ccc(O)cc1 (stereo not given)	false
CCN(CC)CCO	false
